- experimental_details: Phase 1b study in RYR1-Related Myopathy patients, plasma pharmacokinetics
- Type: in vivo, human (RYR1-Related Myopathy patients)
- cond: human, plasma, po, 120 mg, single oral 120 mg, Day 1, three subjects, geometric mean; read-out: t½ (converted)
experimental_endpoint: half-life (h)
Report as a plain number; the unit h is understood.

Tell us which half-life value is on record for "COc1ccc2c(c1)CN(Cc1ccc(C(=O)O)cc1)CCS2.O=C(O)/C=C/C(=O)O" 14.1

* * *

- experimental_details: Phase 1b study in RYR1-Related Myopathy patients, plasma pharmacokinetics
- Type: in vivo, human (RYR1-Related Myopathy patients)
- cond: human, plasma, po, 200 mg, single oral 200 mg, three subjects, time 0.5 hr
experimental_endpoint: concentration at 0.5 h (µg/mL)
Report as a plain number; the unit µg/mL is understood.

Tell us which concentration at 0.5 h value is on record for "COc1ccc2c(c1)CN(Cc1ccc(C(=O)O)cc1)CCS2.O=C(O)/C=C/C(=O)O" 0

Data origin: patent US12161650B2
